Cited source: the supplement of paper PMC9170038

- Test system: MS2 coat protein
- Assay: apparent KD of MS2 coat protein; designed switch direction (-1 OFF switch, 1 ON switch): 1; higher = weaker reporter binding
- Experimental context: input ligand: FMN 200 uM
Measured apparent KD of MS2 coat protein accompanies every entry in the list below.
Give just the numeric value; nM need not be written.

Before answering, review these 3 worked examples.
Sequence	Study system	Unit abbrev	apparent KD of MS2 coat protein
AUUGUUAAUGCAGGAUAUGAUUAACAUGAGGAUCACCCAUGUGGUGUUGUGAGUAAGGAGAGUGAUCAGAAGGGCAUUUUUUUU [JMF's solution 31] (Eterna round: R96, puzzle: Same State NG 2)	MS2 coat protein	nM	826
GGUCCCUACGCACAGGAUAUUCUUUUGGCAACAUGAGGAUCACCCAUGUGUGCCGAUCAUGGUUAGAAGAAGGGUGGUAGGGACC [Usisus] (Eterna round: R96, puzzle: Same State 2)	MS2 coat protein	nM	10
CUGAGGAAGAGAGAGGAUAUCCAAAGGAAAACAUGAGGAUCACCCAUGUAAAAGGUAGGAAAUUGGGAGAAGGCUCAAGAGAGAG [salish99-ss2-068] (Eterna round: R96, puzzle: Same State 2)	MS2 coat protein	nM	32.3

Known value: MS2 coat protein apparent KD of MS2 coat protein of the sequence CGGGUAAUCGUAGGAUAUCUAGGAUAUGAACGAGGAUCACCCGAGCAGCAUCAGCGCAUCAGAGGAGAGAAGGACGAUGAUGCG [pwkr ssNG2 2F5 2FMN.18] (Eterna round: R96, puzzle: Same State NG 2) equals 164

// assay MS2 coat protein, entry GGAGCCGGCCUAGGAUAUUUCAUAAAGAAACAUGAGGAUCACCCAUGUAGGCCAGAAGGCCUUGGGAAGAAGGAGGUCGGCUCC [Loop Effect - G27] (Eterna round: R96, puzzle: Same State NG 2) , apparent KD of MS2 coat protein value = 12.4
